- test name: Solubility was determined; value ranges from 6-7
- Assay type: physicochemical
metric: solubility (µg/mL)
A number alone suffices; assume µg/mL.

Incoming: Read the entry CC(=O)O[C@@]12CO[C@@H]1C[C@H](O)[C@@]1(C)C(=O)[C@H](O)C3=C(C)[C@@H](OC(=O)[C@H](O)[C@@H](NC(=O)OC(C)(C)C)c4ccccc4)C[C@@](O)([C@@H](OC(=O)c4ccccc4)[C@H]21)C3(C)C.O.O.O [DOCETAXEL] and write its reported solubility.
Outgoing: 6
